Please provide measured IC50 for the entries that follow.
target: B-Raf kinase (Homo sapiens); construct: purchased Upstate Biotechnology; assay: B-Raf kinase assay ([33P] incorporation into MEK1(K97R)); type: biochemical; conditions: class symbols; 8 μM ATP; read-out: IC50 against B-Raf kinase
Sequence (P15056 whole entry): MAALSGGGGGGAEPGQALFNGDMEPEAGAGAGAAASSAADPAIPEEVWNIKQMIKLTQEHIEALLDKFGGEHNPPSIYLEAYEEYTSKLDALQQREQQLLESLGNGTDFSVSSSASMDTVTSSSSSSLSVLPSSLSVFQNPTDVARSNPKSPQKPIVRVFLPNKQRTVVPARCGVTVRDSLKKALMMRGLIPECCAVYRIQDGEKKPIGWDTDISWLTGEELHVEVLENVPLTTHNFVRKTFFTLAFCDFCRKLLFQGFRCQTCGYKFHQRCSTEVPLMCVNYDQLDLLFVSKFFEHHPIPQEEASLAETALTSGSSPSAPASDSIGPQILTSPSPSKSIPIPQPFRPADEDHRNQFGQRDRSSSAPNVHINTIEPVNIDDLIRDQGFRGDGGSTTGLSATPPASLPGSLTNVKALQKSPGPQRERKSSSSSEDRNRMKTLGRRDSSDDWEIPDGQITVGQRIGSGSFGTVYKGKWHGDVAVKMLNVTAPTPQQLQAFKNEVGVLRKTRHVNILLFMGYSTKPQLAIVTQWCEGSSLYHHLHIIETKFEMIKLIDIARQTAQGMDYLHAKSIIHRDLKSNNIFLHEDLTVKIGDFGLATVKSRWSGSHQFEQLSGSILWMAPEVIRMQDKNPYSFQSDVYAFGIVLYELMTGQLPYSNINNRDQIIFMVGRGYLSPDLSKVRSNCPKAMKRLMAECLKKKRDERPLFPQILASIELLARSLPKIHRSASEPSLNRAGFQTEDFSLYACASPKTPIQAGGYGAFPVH

For `CCCS(=O)(=O)Nc1ccc(F)c(Nc2ncnc3ccc(-c4cccnc4C#N)cc23)c1F` the molecule record lists IC50 as 0.3 to 1 µM

For `CCCS(=O)(=O)Nc1ccc(F)c(Nc2ncnc3ccc(-c4cnccc4F)cc23)c1F` the molecule record lists IC50 as < 0.3 µM

For `CCCS(=O)(=O)Nc1ccc(F)c(Oc2ncnc3ccc(-c4cccnc4F)cc23)c1F` the molecule record lists IC50 as 0.3 to 1 µM

For `O=S(=O)(Nc1ccc(F)c(Nc2ncnc3ccc(-c4cccnc4F)cc23)c1F)c1ccccc1` the molecule record lists IC50 as < 0.3 µM

For `CC(C)S(=O)(=O)Nc1ccc(F)c(Nc2ncnc3ccc(-c4cccnc4F)cc23)c1F` the molecule record lists IC50 as 1 to 10 µM

For `O=S(=O)(CCCF)Nc1ccc(F)c(Nc2ncnc3ccc(-c4cccnc4F)cc23)c1F` the molecule record lists IC50 as < 0.3 µM

For `CCCS(=O)(=O)Nc1ccc(F)c(Nc2ncnc3ccc(-c4ccnc(F)c4)cc23)c1F` the molecule record lists IC50 as < 0.3 µM

For `CCCS(=O)(=O)Nc1ccc(F)c(Nc2ncnc3ccc(N4CCOCC4)cc23)c1F` the molecule record lists IC50 as 1 to 10 µM

For `CCCS(=O)(=O)Nc1ccc(F)c(C(=O)c2ncnc3ccc(-c4cccnc4F)cc23)c1F` the molecule record lists IC50 as < 0.3 µM

---

Please provide measured pIC50 for the entries that follow.
target: C-Raf kinase (Homo sapiens); test: C-Raf kinase assay ([33P] incorporation into MEK1(K97R)); details: class symbols; 8 μM ATP; read-out: IC50 against C-Raf kinase
Sequence (P04049 whole entry): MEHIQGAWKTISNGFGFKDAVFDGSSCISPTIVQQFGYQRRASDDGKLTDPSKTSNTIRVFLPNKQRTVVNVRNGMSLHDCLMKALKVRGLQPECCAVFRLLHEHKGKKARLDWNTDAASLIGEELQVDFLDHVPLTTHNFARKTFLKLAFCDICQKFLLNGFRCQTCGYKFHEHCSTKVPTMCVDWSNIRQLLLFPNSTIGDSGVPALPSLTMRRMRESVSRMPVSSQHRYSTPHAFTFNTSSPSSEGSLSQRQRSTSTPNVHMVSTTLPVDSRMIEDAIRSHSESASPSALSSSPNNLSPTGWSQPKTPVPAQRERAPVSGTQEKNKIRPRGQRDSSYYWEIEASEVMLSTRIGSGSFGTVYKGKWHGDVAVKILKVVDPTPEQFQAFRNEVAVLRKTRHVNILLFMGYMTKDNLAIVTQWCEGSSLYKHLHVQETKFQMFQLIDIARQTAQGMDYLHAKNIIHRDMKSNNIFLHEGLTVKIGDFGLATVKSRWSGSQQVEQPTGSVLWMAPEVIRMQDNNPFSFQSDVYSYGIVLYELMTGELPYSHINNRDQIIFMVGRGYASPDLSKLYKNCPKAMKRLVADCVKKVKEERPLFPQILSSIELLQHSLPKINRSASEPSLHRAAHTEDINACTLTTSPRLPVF
pIC50: −log10 of the molar value.

For `CCCCS(=O)(=O)Nc1ccc(F)c(Nc2ncnc3ccc(-c4cccnc4F)cc23)c1F` the molecule record lists pIC50 as > 6.52

For `CCCS(=O)(=O)Nc1ccc(F)c(Nc2ncnc3ccc(-c4cccc(F)n4)cc23)c1F` the molecule record lists pIC50 as 6.00 to 6.52

For `CCCS(=O)(=O)Nc1ccc(F)c(Nc2ncnc3ccc(-c4cnc(OC)c([N+](=O)[O-])c4)cc23)c1F` the molecule record lists pIC50 as > 6.52

For `CCCS(=O)(=O)Nc1ccc(F)c(Nc2ncnc3ccc(-c4cnccc4F)cc23)c1F` the molecule record lists pIC50 as > 6.52

For `CCCS(=O)(=O)Nc1ccc(F)c(Nc2ncnc3ccc(-c4cccc(C(F)(F)F)n4)cc23)c1F` the molecule record lists pIC50 as > 6.52

For `CCCS(=O)(=O)Nc1ccc(F)c(Nc2ncnc3ccc(-c4cccc(OC)n4)cc23)c1F` the molecule record lists pIC50 as 6.00 to 6.52

For `CCCS(=O)(=O)Nc1ccc(F)c(Nc2ncnc3ccc(-c4ccc(OC)nc4)cc23)c1F` the molecule record lists pIC50 as > 6.52

For `CCCS(=O)(=O)Nc1ccc(F)c(Nc2ncnc3cc(OCCOC)c(-c4cccnc4F)cc23)c1F` the molecule record lists pIC50 as > 6.52

For `CCCS(=O)(=O)Nc1ccc(F)c(Nc2ncnc3cc(F)c(-c4ccncc4)cc23)c1F` the molecule record lists pIC50 as > 6.52

For `CCCS(=O)(=O)Nc1ccc(F)c(Nc2ncnc3ccc(-c4ccnc(OCCN(C)C)c4)cc23)c1F` the molecule record lists pIC50 as 5.00 to 6.00

For `CCCS(=O)(=O)Nc1ccc(F)c(Nc2ncnc3ccc(-c4ccc(=O)[nH]c4)cc23)c1F` the molecule record lists pIC50 as 6.00 to 6.52

For `CCCS(=O)(=O)Nc1ccc(F)c(Nc2ncnc3ccc(-c4ccnc(OC)c4)cc23)c1F` the molecule record lists pIC50 as > 6.52

For `O=S(=O)(CCCF)Nc1ccc(F)c(Nc2ncnc3ccc(-c4cccnc4F)cc23)c1F` the molecule record lists pIC50 as > 6.52

For `CCCS(=O)(=O)Nc1ccc(F)c(Nc2ncnc3cc(OCCN4CCOCC4)c(-c4cccnc4F)cc23)c1F` the molecule record lists pIC50 as 6.00 to 6.52

For `CCCS(=O)(=O)Nc1ccc(F)c(Nc2ncnc3ccc(-c4cn[nH]c4)cc23)c1F` the molecule record lists pIC50 as > 6.52
